tested on: CAL-120 (Breast Carcinoma); assay: combination Emax (second highest fraction inhibited in the dose matrix, 72 h); higher = more inhibition; extreme values may be limits of the assay
measurement.kind: combination Emax

| compound | measurement.kind | meas.value |
| --- | --- | --- |
| Cn1cnc2c(F)c(Nc3ccc(Br)cc3Cl)c(C(=O)NOCCO)cc21 [Selumetinib] + C=CCn1c(=O)c2cnc(Nc3ccc(N4CCN(C)CC4)cc3)nc2n1-c1cccc(C(C)(C)O)n1 [AZD1775] (first compound max 10 µM, partner max 1 µM) | combination Emax | 0.326 |
| C=CCn1c(=O)c2cnc(Nc3ccc(N4CCN(C)CC4)cc3)nc2n1-c1cccc(C(C)(C)O)n1 [AZD1775] + C[C@@H]1COCCN1C2=NC(=NC(=C2)C3(CC3)[S@](=N)(=O)C)C4=C5C=CNC5=NC=C4 [AZD6738] (first compound max 1 µM, partner max 10 µM) | combination Emax | 0.583 |
| Cc1c2c(nn1C)CSCc1cc(n(C)n1)CSc1cc(c3ccccc3c1)OCCCc1c(C(=O)O)n(C)c3c-2c(Cl)ccc13 [AZD5991] + C[C@@H]1COCCN1C2=NC(=NC(=C2)C3(CC3)[S@](=N)(=O)C)C4=C5C=CNC5=NC=C4 [AZD6738] (first compound max 1 µM, 7x7, partner max 10 µM) | combination Emax | 0.413 |
| COc1nnc2ccc(N3CCC(c4ccc(OCCN5CCN(C)C(=O)[C@H]5C)cc4)CC3)nn12 [AZD5153] + CCN(CCO)CCCOc1ccc2c(Nc3cc(CC(=O)Nc4cccc(F)c4)[nH]n3)ncnc2c1 [AZD2811] (first compound max 1 µM, 7x7, partner max 1 µM) | combination Emax | 0.441 |
